- Tested on: VDR homodimer (NR concentration 270 nM)
- TEST METHOD NOTES: PBM binding z-score (relative to random genomic background probes); higher = stronger binding; sequences stand for … in GC…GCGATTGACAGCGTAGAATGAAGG
Everything with PBM binding z-score lower than 0.6 is Not satisfied; everything else, including exactly 0.6, is Satisfied.

Q) Check if PBM binding z-score >= 0.6 (inclusive). Item: `ATATGTAGGTTAAGGGTCATTCTGGTTGGTTCGC`
A) Satisfied

Q) Check if PBM binding z-score >= 0.6 (inclusive). Item: `CTACCAAGGTGAACAAGGTCGCTGATTACTATTC`
A) Satisfied

Q) Check if PBM binding z-score >= 0.6 (inclusive). Item: `ACTATTAGTTGAGACGGGGGCAACCGATAGGTTG`
A) Satisfied

Q) Check if PBM binding z-score >= 0.6 (inclusive). Item: `CTACCAAGGTGAACAAGCTCGTTGATTACTATTC`
A) Not satisfied

Q) Check if PBM binding z-score >= 0.6 (inclusive). Item: `TCTATTAGTCGATTAGGGCAACCGAAACAGCGGA`
A) Not satisfied

Q) Check if PBM binding z-score >= 0.6 (inclusive). Item: `AGAATGAGATTAAGATCAGGGAAACAGAATACAT`
A) Not satisfied

Q) Check if PBM binding z-score >= 0.6 (inclusive). Item: `CCAGACACGTGAAAGGTAACTCAGTCTGGTACGC`
A) Not satisfied

Q) Check if PBM binding z-score >= 0.6 (inclusive). Item: `CCGAGTAGGTTATGGGGCATTCGGGCAACGGTGA`
A) Not satisfied

Q) Check if PBM binding z-score >= 0.6 (inclusive). Item: `ACTACTTGGTCAGCTGAGGTCACACACAATTCGG`
A) Satisfied

Q) Check if PBM binding z-score >= 0.6 (inclusive). Item: `TCTAGCAGGCCAGAGGTTCACTCAAGAGGTACGG`
A) Satisfied

Q) Check if PBM binding z-score >= 0.6 (inclusive). Item: `AGAATGAGGTTACCAAAGATCAGGGCAACGCTTG`
A) Satisfied

Q) Check if PBM binding z-score >= 0.6 (inclusive). Item: `ATCGAAAGGTCGAGCTGAGTATAGAGAAAGGGAA`
A) Not satisfied

Q) Check if PBM binding z-score >= 0.6 (inclusive). Item: `CTACTAAGGTGAACAAGGTCGTTGATTACTATTC`
A) Satisfied

Q) Check if PBM binding z-score >= 0.6 (inclusive). Item: `CCTACTGGGCCAAAAGTCATTGATTCCAATGCTC`
A) Not satisfied

Q) Check if PBM binding z-score >= 0.6 (inclusive). Item: `CCGACTGGGGCATAAGGTTAGCATAAGCCAGCCC`
A) Not satisfied

Q) Check if PBM binding z-score >= 0.6 (inclusive). Item: `GGTGCTAGGTCAACTGATGGTCAGCTAAAGCTCG`
A) Not satisfied

Q) Check if PBM binding z-score >= 0.6 (inclusive). Item: `CCTAGTTGGTCAATGTCACACACGCTATAGGTAC`
A) Satisfied

Q) Check if PBM binding z-score >= 0.6 (inclusive). Item: `CCTTACGGGTCACGAGGTTATAGTACGACGAGCG`
A) Satisfied

Q) Check if PBM binding z-score >= 0.6 (inclusive). Item: `GCTCGGAGGTCAAGGTCAGAGCTTTGTCCGTAGA`
A) Satisfied

Q) Check if PBM binding z-score >= 0.6 (inclusive). Item: `TCTGCTACGTCAGTTGGTCAGCTAACGAGCTGCC`
A) Not satisfied

Q) Check if PBM binding z-score >= 0.6 (inclusive). Item: `CAAACTAGGTCAATGTCAAAGTCGGTTTGTGCCA`
A) Satisfied

Q) Check if PBM binding z-score >= 0.6 (inclusive). Item: `CATACTGGGCCAAAGGTCATTGATTCCAATGCTC`
A) Satisfied

Q) Check if PBM binding z-score >= 0.6 (inclusive). Item: `CCTATTAGTTGACCATAAGGGCAACCGCAGCTCG`
A) Satisfied

Q) Check if PBM binding z-score >= 0.6 (inclusive). Item: `ATCGAAAGGTCGTGAGGGGAGTATACAGAAAGGC`
A) Satisfied

Q) Check if PBM binding z-score >= 0.6 (inclusive). Item: `ACTATTAGTTGAGACGAGGGCAACCTATAGGTTG`
A) Satisfied

Q) Check if PBM binding z-score >= 0.6 (inclusive). Item: `CCGCGGAGGACAGAAGGTCAGAGCTGTCCGCTTT`
A) Not satisfied

Q) Check if PBM binding z-score >= 0.6 (inclusive). Item: `ACCTCTAGGTAACCAAGTTCAGTGAATGCCGAAC`
A) Satisfied

Q) Check if PBM binding z-score >= 0.6 (inclusive). Item: `TCATATTGGTAAAGGTGAAAGTCGAACGATATGA`
A) Not satisfied

Q) Check if PBM binding z-score >= 0.6 (inclusive). Item: `ATATGTAGGTTAGCTGGGGTCATTCAGACTAGGC`
A) Satisfied

Q) Check if PBM binding z-score >= 0.6 (inclusive). Item: `ATATGTAGGTTAAGGGTCATTCAGGTTGGTTCGC`
A) Satisfied

Q) Check if PBM binding z-score >= 0.6 (inclusive). Item: `CCGACTGGGGCCAAGGTTACCATACTCAGTACGA`
A) Not satisfied

Q) Check if PBM binding z-score >= 0.6 (inclusive). Item: `GCTTACGGGTCAAAGGTTAGAGCATGAATAGAAT`
A) Satisfied

Q) Check if PBM binding z-score >= 0.6 (inclusive). Item: `TTACCAAGGTGAGCTGGGGTCGTTGATCCAACTC`
A) Satisfied

Q) Check if PBM binding z-score >= 0.6 (inclusive). Item: `CAAACTAGGTCACCGGAAGGTAAAAGTCCGCATG`
A) Satisfied

Q) Check if PBM binding z-score >= 0.6 (inclusive). Item: `ATGTCTAGGTAACAAGTTCAGTGAAAGAGAGGAC`
A) Satisfied

Q) Check if PBM binding z-score >= 0.6 (inclusive). Item: `CGAACTAGGGCATTGACAGGACAGTGAATAGTAA`
A) Not satisfied

Q) Check if PBM binding z-score >= 0.6 (inclusive). Item: `GTACCAAGGTGACTAGGTCGTTGATGAGTAGGCG`
A) Not satisfied

Q) Check if PBM binding z-score >= 0.6 (inclusive). Item: `ACTAGGAGGCCAAGTTTGGGTCACTCAAACAAAG`
A) Satisfied

Q) Check if PBM binding z-score >= 0.6 (inclusive). Item: `GCAACGAGGGCAAAGTTGATAGCATCTGTCGACG`
A) Satisfied

Q) Check if PBM binding z-score >= 0.6 (inclusive). Item: `GCGACTGGGGCAAAGCAGGTTACCATAAGGTTGG`
A) Not satisfied

Q) Check if PBM binding z-score >= 0.6 (inclusive). Item: `CCTTACGGGTTACTGACAGGTTATAGCATTTGGA`
A) Not satisfied

Q) Check if PBM binding z-score >= 0.6 (inclusive). Item: `TCTCGGAGGACACGAAGGTCAGTGCTTTCCAGAG`
A) Satisfied

Q) Check if PBM binding z-score >= 0.6 (inclusive). Item: `TCAGCTAGGTCAGTTGGTCAGCTAACGAGCTGCC`
A) Not satisfied

Q) Check if PBM binding z-score >= 0.6 (inclusive). Item: `CCCAGCAGGCCAGGGTCACTCAAGCATTTCGCTT`
A) Satisfied

Q) Check if PBM binding z-score >= 0.6 (inclusive). Item: `ACTATTAGTTGACTTAGTGCAACCGATACGACGC`
A) Not satisfied

Q) Check if PBM binding z-score >= 0.6 (inclusive). Item: `TCTATTAGTTGATTACGGCAACCGAAACAGCGGA`
A) Not satisfied

Q) Check if PBM binding z-score >= 0.6 (inclusive). Item: `TCTTGTAGATCAATAGAGGTTAAGAAGGTGCGCT`
A) Not satisfied

Q) Check if PBM binding z-score >= 0.6 (inclusive). Item: `AGAACGAGGGCTATGAGTTGATAGCACGGGTGGC`
A) Not satisfied

Q) Check if PBM binding z-score >= 0.6 (inclusive). Item: `TCATATAGGCAAAAGGTGAAAGTCGGTGTGGTAA`
A) Not satisfied

Q) Check if PBM binding z-score >= 0.6 (inclusive). Item: `AGAACGAGGGCACGATGAGTTGATAGCAGAGTAG`
A) Satisfied
